experiment: Inhibition of HIV1 reverse transcriptase strand transfer activity
measure: IC50
Dear colleague, please send the value followed by its unit.

Sure, the documented IC50 for O=C(NCc1ccc(Cl)cc1)c1ncc2cccnc2c1O is 135 nM

----------
experiment: Solubility of the compound by chemiluminescent nitrogen detection method; assay type: physicochemical
measure: solubility (µM)
# number only, unit µM dropped from output

entry_smiles	u	solubility
O=c1nc(NCc2ccc(N3CCOCC3)cc2)c2cccnc2n1O	µM	293
O=c1nc(Nc2ccc(N3CCOCC3)cc2)c2cccnc2n1O	µM	161

Continue with the next compound.
Quick note, solubility for O=c1nc(Nc2ccc(CN3CCOCC3)cc2)c2cccnc2n1O landed at 503

Data origin, for the record: ChEMBL document CHEMBL3286181
